This collection of values is drawn from patent US7956074B2.

Target: GABA A receptor α5β3γ2 (Homo sapiens, UniProt P18507+P31644)
Construct: expressed in transfected cells; host or cells: HEK293 cells, transiently transfected; membranes prepared
Assay: [3H]flumazenil competition binding, human GABA A α5β3γ2
Details: competition for [3H]flumazenil (0.5 nM) binding, HEK293 cells expressing human (transiently transfected) α5β3γ2; means of two determinations; read-out: Ki[nM] hα5
value_kind: Ki (nM)

Consider the reported Ki for these compounds:
Lookup result for Cc1onc(-c2ccccc2)c1-c1nnc(-c2ccc(C(F)(F)F)cc2)o1 [Example 50] ; measured Ki: 250

COc1cc(N2CCSCC2)ccc1-c1nnc(-c2c(-c3ccccc3)noc2C)o1 [Example 26] has a reported Ki of 10.2

The compound listed as Cc1onc(-c2ccccc2)c1-c1nnc(-c2ccccc2OC(F)F)o1 [Example 42] has a reported Ki of 141

1 = COc1cc(N2CC[S+]([O-])CC2)ccc1-c1nnc(-c2c(-c3ccccc3)noc2C)o1 [Example 56]
2 = COc1cc(N2CCOCC2)ccc1-c1nnc(-c2c(-c3ccccc3)noc2-n2cccn2)o1 [Example 113]
Param pair: 1 , 2 . Output: the one whose Ki is numerically greater. The response must carry the label of the picked entry.
2
(2: 7.4 nM, 1: 2.2 nM)

###

Target: GABA A receptor α5β3γ2 (Homo sapiens, UniProt P18507+P31644)
Construct: expressed in transfected cells; host or cells: HEK293 cells, transiently transfected; membranes prepared
Assay: [3H]flumazenil competition binding, human GABA A α5β3γ2
Conditions: competition for [3H]flumazenil (0.5 nM) binding, HEK293 cells expressing human (transiently transfected) α5β3γ2; means of two determinations; read-out: Ki[nM] hα5
value_kind: Ki (nM)

A = Cc1onc(-c2ccccc2)c1-c1nnc(-c2ccc(NC3CCOCC3)nc2)o1 [Example 139]
B = Cc1onc(-c2ccccc2)c1-c1nnc(-c2cc(F)c(F)cc2F)o1 [Example 118]
C = COCCNc1ccc(-c2nnc(-c3c(-c4ccccc4)noc3C)o2)c(OC)c1 [Example 124]
D = Cc1onc(-c2ccccc2)c1-c1nnc(-c2cccc3[nH]cnc23)o1 [Example 125]
E = COc1cc(NCCN2CCCC2=O)c(F)cc1-c1nnc(-c2c(-c3ccccc3)noc2C)o1 [Example 128]
Descending sort on Ki required. Lab note: record answer as labels in requested order.
B, D, A, C, E

###

Biological target: GABA A receptor α5β3γ2 (Homo sapiens, UniProt P18507+P31644)
Construct: expressed in transfected cells; host or cells: HEK293 cells, transiently transfected; membranes prepared
Assay: [3H]flumazenil competition binding, human GABA A α5β3γ2
Conditions: competition for [3H]flumazenil (0.5 nM) binding, HEK293 cells expressing human (transiently transfected) α5β3γ2; means of two determinations; read-out: Ki[nM] hα5
Experimental: Membrane Preparation and Binding Assay The affinity of compounds at GABA A receptor subtypes was measured by competition for [3H]flumazenil (85 Ci/mmol; Roche) binding to HEK293 cells expressing rat (stably transfected) or human (transiently transfected) receptors of composition […]
value_kind: Ki (nM)

// worked examples, Ki included
What the record says about COc1cc(F)ccc1-c1nnc(-c2c(-c3ccccc3)noc2CO)o1 [Example 92] : Ki is 293

Data point: COc1cc(NC(=O)c2ccsc2)ccc1-c1nnc(-c2c(-c3ccccc3)noc2C)o1 [Example 23] ; Ki = 18.3

COc1cc(NCC2CCCO2)c(F)cc1-c1nnc(-c2c(-c3ccccc3)noc2C)o1 (racemic) [Example 130] has a reported Ki of 10.5

// recorded Ki for COc1cc(N2CCOCC2)ccc1-c1nnc(-c2c(-c3cccc(Cl)c3)noc2C)o1 [Example 94] : 19.3

Note to self: Ki recorded for Cc1onc(-c2ccccc2)c1-c1nnc(-c2ccc(N3CCOCC3)nc2)o1 [Example 136] was 15.3

a = COc1ccccc1-c1nnc(-c2c(-c3ccccc3)noc2C)o1 [Example 4]
b = CCc1onc(-c2ccccc2)c1-c1nnc(-c2ccc(F)cc2OC)o1 [Example 60]
Please indicate which entry, a or b , has the lower recorded Ki value. Field: selected label. Fill in the label of the entry you choose.
a
(a: 16.4 nM, b: 96 nM)

###

Biological target: GABA A receptor α5β3γ2 (Homo sapiens, UniProt P18507+P31644)
Construct: expressed in transfected cells; host or cells: HEK293 cells, transiently transfected; membranes prepared
Test: [3H]flumazenil competition binding, human GABA A α5β3γ2
Conditions: competition for [3H]flumazenil (0.5 nM) binding, HEK293 cells expressing human (transiently transfected) α5β3γ2; means of two determinations; read-out: Ki[nM] hα5
value_kind: Ki (nM)

Form: molecule = Cc1onc(-c2ccccc2)c1-c1nnc(-c2ccc(N3CCS(=O)(=O)CC3)cc2)o1 [Example 38] ; Ki = 19.7

Looking up CC(C)c1onc(-c2ccccc2)c1-c1nnc(-c2ccc3c(c2)n(C)c(=O)n3C)o1 [Example 53] , I found its Ki recorded as 2.3

molecule COc1cc(C(F)(F)F)ccc1-c1nnc(-c2c(-c3ccccc3)noc2C)o1 [Example 49] , Ki observed: 39.7

Entry under test: Cc1onc(-c2ccccc2)c1-c1nnc(-c2ccc(N3CCC(F)(F)CC3)cc2)o1 [Example 112] . Its Ki was 31.2

Field Ki (entry COc1cc(N2CCOCC2)ccc1-c1nnc(-c2c(-c3ccccc3)noc2N(C)C)o1 [Example 106] ) reads 165

a = COc1cc(NCCN2CCNC2=O)c(F)cc1-c1nnc(-c2c(-c3ccccc3)noc2C)o1 [Example 133]
b = COc1cc(NCCO)c(F)cc1-c1nnc(-c2c(-c3ccccc3)noc2C)o1 [Example 129]
c = Cc1onc(-c2ccccc2)c1-c1nnc(-c2ccc(N3CCCCC3)cc2)o1 [Example 47]
d = Cc1onc(-c2ccccc2)c1-c1nnc(-c2cccs2)o1 [Example 121]
e = COc1cc(N2CCOCC2)ccc1-c1nnc(-c2c(-c3ccccc3)noc2Cl)o1 [Example 105]
Arrange items by their Ki values in increasing order. Give me the labels in the order the question wants.
b, a, e, c, d
(b: 2.5 nM, a: 12.8 nM, e: 27.1 nM, c: 46.9 nM, d: 115 nM)

###

Target: GABA A receptor α5β3γ2 (Homo sapiens, UniProt P18507+P31644)
Construct: expressed in transfected cells; host or cells: HEK293 cells, transiently transfected; membranes prepared
Experiment: [3H]flumazenil competition binding, human GABA A α5β3γ2
Conditions: competition for [3H]flumazenil (0.5 nM) binding, HEK293 cells expressing human (transiently transfected) α5β3γ2; means of two determinations; read-out: Ki[nM] hα5
value_kind: Ki (nM)

Consider COc1cc(N2CCOCC2)ccc1-c1nnc(-c2c(-c3cccc(F)c3)noc2C)o1 [Example 108] . Its measured Ki is 11.3

Short answer for CCC(=O)Nc1ccc(-c2nnc(-c3c(-c4ccccc4)noc3C)o2)c(OC)c1 [Example 90] : Ki was 4.8

Noted for Cc1onc(-c2ccccc2)c1-c1nnc(-c2ccc3nn[nH]c3c2)o1 [Example 25] : its Ki reads 30.9

Short answer for Cc1onc(-c2ccccc2)c1-c1nnc(-c2ccc(N3CCSCC3)cc2)o1 [Example 37] : Ki was 22.9

The compound identified as COc1cc(N2CCSCC2)c(F)cc1-c1nnc(-c2c(-c3ccccc3)noc2C)o1 [Example 116] registered its Ki at 4.5

Short answer for Cc1onc(-c2ccccc2)c1-c1nnc(-c2ccnc(N3CCOCC3)c2)o1 [Example 55] : Ki was 324

Field Ki (entry COc1cc(N2CCOCC2)ccc1-c1nnc(-c2conc2-c2ccc(F)cc2)o1 [Example 98] ) reads 49

Lab note: measured Ki of COc1cc(N2CCOCC2)ccc1-c1nnc(-c2c(-c3ccccc3)noc2C2CC2)o1 [Example 77] was 2.1

Kindly note the recorded Ki for COc1ccccc1-c1nnc(-c2c(-c3ccccc3)noc2C2CC2)o1 [Example 69] , which is 8.1

The value of Ki measured for the compound Cc1onc(-c2ccccc2)c1-c1nnc(-c2ccc(N)nc2)o1 [Example 48] turned out to be 38.9

I = COc1cc(N2CCOCC2)ccc1-c1nnc(-c2c(-c3ccc(C)cc3)noc2C)o1 [Example 104]
II = COc1cc(N2CCOCC2)ccc1-c1nnc(-c2c(-c3ccc(Cl)cc3)noc2C)o1 [Example 109]
III = Cc1onc(-c2ccccc2)c1-c1nnc(-c2ccccn2)o1 [Example 9]
IV = Cc1onc(-c2ccccc2)c1-c1nnc(-c2ccccc2N)o1 [Example 12]
V = COc1cc(N2CCOCC2)ccc1-c1nnc(-c2c(-c3ccccc3)noc2C)o1 [Example 68]
Kindly order the items shown according to Ki, from the highest value down. Arrange the labels as the request states and list them.
III, IV, I, V, II
(III: 286 nM, IV: 106 nM, I: 12.1 nM, V: 4.2 nM, II: 2.2 nM)

a = COc1cc(NC2CCN(C)CC2)ccc1-c1nnc(-c2c(-c3ccccc3)noc2C)o1 [Example 65]
b = Cc1onc(-c2ccccc2)c1-c1nnc(-c2ccc(N3CCSCC3)nc2)o1 [Example 138]
Hi there! Just curious which has the higher Ki between a and b . # reply format: chosen label
b
(b: 31 nM, a: 15.3 nM)
